Reported values of inhibition at 0.1 µM for individual entries
# measured.on: SRC (Homo sapiens, UniProt P12931)
# Construct: purchased Invitrogen
# Sequence (P12931 whole entry): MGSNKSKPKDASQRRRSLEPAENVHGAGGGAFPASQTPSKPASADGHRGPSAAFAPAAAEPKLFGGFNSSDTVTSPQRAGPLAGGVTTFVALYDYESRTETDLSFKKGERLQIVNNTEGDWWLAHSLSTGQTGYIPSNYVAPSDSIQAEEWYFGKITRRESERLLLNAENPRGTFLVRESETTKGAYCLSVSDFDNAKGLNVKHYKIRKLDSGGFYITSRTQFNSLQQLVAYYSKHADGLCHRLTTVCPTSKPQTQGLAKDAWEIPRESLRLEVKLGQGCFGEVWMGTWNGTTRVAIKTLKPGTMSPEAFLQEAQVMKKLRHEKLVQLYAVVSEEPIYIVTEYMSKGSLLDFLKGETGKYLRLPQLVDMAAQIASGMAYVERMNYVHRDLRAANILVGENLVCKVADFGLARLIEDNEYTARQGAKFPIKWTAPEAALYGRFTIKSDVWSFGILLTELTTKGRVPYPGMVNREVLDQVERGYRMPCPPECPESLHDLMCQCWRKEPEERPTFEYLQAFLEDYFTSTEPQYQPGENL
# assay.text: In vitro kinase assay (Z'-LYTE), SRC
# Format: biochemical
# assay.conditions: read-out: % of inhibition of the kinase compared to the control
assay.endpoint: inhibition at 0.1 µM

INSERT INTO results (substance_smiles, measured_result) VALUES
  ('CC(=O)c1cc2cc(NCc3cc(NC(=O)c4ccn[nH]4)ccc3C)cnc2[nH]1', '< 50%'),
  ('CC(=O)c1cc2cc(NCc3cccc(NC(=O)c4cncc(C(F)(F)F)c4)c3)cnc2[nH]1', '< 50%'),
  ('CC(=O)c1cc2cc(NCc3cc(NC(=O)Nc4cccc(C(F)(F)F)c4)ccc3C)cnc2[nH]1', '< 50%'),
  ('CC(=O)c1cc2cc(NC(=O)c3cccc(CNC(=O)c4ccc(CN5CCN(C)CC5)c(C(F)(F)F)c4)c3)cnc2[nH]1', '< 50%'),
  ('CC(=O)c1cc2cc(NCc3cc(NC(=O)c4ccc(C)c(C(F)(F)F)c4)ccc3C)cnc2[nH]1', '≥ 50%'),
  ('Cc1cn(-c2cc(C(=O)Nc3ccc(C)c(CNc4cnc5[nH]c(C(=O)O)cc5c4)c3)cc(C(F)(F)F)c2)cn1', '≥ 50%');
